# assay-target: BRD4 (BDI_K57-E168) (Homo sapiens, UniProt O60885)
# Construct: BD1: amino acids K57-E168
# protocol-details: TR-FRET bromodomain binding assay, BRD4 first bromodomain
# recorded-conditions: His-tagged BD1, Alexa647-labeled probe 100 nM; Ki calculated from IC50
readout-kind: pKi
Lab note: report pKi as minus log10 of the concentration in molar units, number only.

The examples below pair each entry with its known result.
> print(dat)
                                   compound  reported.measurement
1  Cc1[nH]c(-c2c(F)cccc2F)cc1C(N)=O [Example 147]                  4.92
2  Cc1[nH]c(-c2ccccc2NCc2cccc(Cl)c2)cc1C(N)=O [Example 35]                  5.57
3  Cc1[nH]c(-c2ccccc2Oc2ccc(-n3ccnc3)cc2)cc1C(N)=O [Example 135]                  6.45
4  Cc1[nH]c(-c2ccccc2NC2CCc3ccccc32)cc1C(N)=O (stereo not drawn) [Example 67]                  6.34
5  COc1ccc(CNc2ccccc2-c2cc(C(N)=O)c(C)[nH]2)cc1 [Example 30]                  5.51

Next:
Query string: Quick one: pKi of Cc1[nH]c(-c2ccccc2N(Cc2ccc(OCCCN(C)C)cc2)CC2CCCC2)cc1C(N)=O [Example 57] ?
Result string: 6.41

====

Reported log10 of Ki by item:
# assay-target: BRD4 (BDII_E352-M457) (Homo sapiens, UniProt O60885)
# protocol-details: TR-FRET bromodomain binding assay, BRD4 second bromodomain
# recorded-conditions: His-tagged BD2, Alexa647-labeled probe 30 nM; Ki calculated from IC50
The figures below represent log10 of Ki, where Ki is stated in µM.

The examples below pair each entry with its known result.
> print(dat)
                                   compound  readout.kind  reported.measurement
1             Cc1[nH]c(-c2ccccc2N)cc1C(N)=O   log10 of Ki                  0.79
2  Cc1[nH]c(-c2ccccc2Oc2ccc(F)cc2)cc1C(N)=O   log10 of Ki                  0.20

Query string: Quick one: log10 of Ki of `Cc1[nH]c(-c2ccccc2Oc2ccc(Oc3ccccc3)cc2)cc1C(N)=O` ?
Result string: 0.85

Query string: Quick one: log10 of Ki of Cc1[nH]c(-c2ccccc2NCC2CCOC2)cc1C(N)=O (stereo not shown) [Example 17] ?
Result string: 0.27

Query string: Quick one: log10 of Ki of `Cc1[nH]c(-c2ccccc2NC2CCCCCC2)cc1C(N)=O` ?
Result string: 0.58

Query string: Quick one: log10 of Ki of `Cc1[nH]c(-c2ccccc2NCc2ccc(Br)cc2)cc1C(N)=O` ?
Result string: 1.01

Query string: Quick one: log10 of Ki of `Cc1[nH]c(-c2cccc(NS(C)(=O)=O)c2)cc1C(N)=O` ?
Result string: 0.70

Query string: Quick one: log10 of Ki of `Cc1[nH]c(-c2ccccc2NC2CCNCC2)cc1C(N)=O` ?
Result string: 1.09

Query string: Quick one: log10 of Ki of `Cc1[nH]c(-c2ccccc2Oc2cccc(Cl)c2)cc1C(N)=O` ?
Result string: -0.11

Query string: Quick one: log10 of Ki of `Cc1[nH]c(-c2ccccc2NC2CCOCC2)cc1C(N)=O` ?
Result string: 0.63

Query string: Quick one: log10 of Ki of `COc1cc(CNc2ccccc2-c2cc(C(N)=O)c(C)[nH]2)cc(OC)c1OC` ?
Result string: 0.31

Query string: Quick one: log10 of Ki of `CCOC(=O)Cc1ccc(OCc2ccccc2)c(-c2cc(C(N)=O)c(C)[nH]2)c1` ?
Result string: 0.87

Query string: Quick one: log10 of Ki of Cc1[nH]c(-c2ccccc2NCC2CCOC2)cc1C(N)=O (single isomer, unassigned) [Example 19] ?
Result string: 0.26

Query string: Quick one: log10 of Ki of `Cc1[nH]c(-c2ccccc2NCc2ccc(C#N)cc2)cc1C(N)=O` ?
Result string: 0.79

Query string: Quick one: log10 of Ki of `Cc1[nH]c(-c2cccc(-c3cccc(CN4CCN(C)CC4)c3)c2)cc1C(N)=O` ?
Result string: 0.33

Query string: Quick one: log10 of Ki of `Cc1[nH]c(-c2ccccc2NS(=O)(=O)CC(F)(F)F)cc1C(N)=O` ?
Result string: 0.41

Query string: Quick one: log10 of Ki of `Cc1[nH]c(-c2ccccc2Oc2ccc(Cl)cc2)cc1C(N)=O` ?
Result string: -0.19

Query string: Quick one: log10 of Ki of `Cc1[nH]c(-c2ccc(-c3cnn(C)c3)cc2)cc1C(N)=O` ?
Result string: 0.54

Query string: Quick one: log10 of Ki of `Cc1[nH]c(-c2cc(CCO)ccc2OCc2ccccc2)cc1C(N)=O` ?
Result string: 0.35
